test: Stability test using mouse liver homogenate; format: in vitro ADME, ICR mouse; details: mouse, liver homogenate, pH 7.2, after being treated with liver homogenate for 60 minutes at 37 C; read-out: Remaining unhydrolyzed substance (%)

{"Molecule": "CCC1OC(=O)CC(O)C(C)C(OC2OC(C)C(OC3CC(C)(O)C(OC(=O)C(O)c4ccc(OC)cc4)C(C)O3)C(N(C)C)C2O)C(CC=O)CC(C)C(=O)C=CC(C)=CC1COC1OC(C)C(O)C(OC)C1OC [Compound A, 4\"-O-[(S)-(+)-p-methoxymandeloyl]tylosin]", "Scale unit": "%", "remaining at 1 h": 97.8}
